All values here come from the NIST ThermoML archive (doi:10.1021/je900537y).

Experiment Description: molar heat capacity at constant pressure
Test Conditions: 318.65 K; 101.33 kPa; Liquid; Small sample (50 mg) DSC
Result Type: molar heat capacity at constant pressure (J/K/mol)

Worked cases, molar heat capacity at constant pressure given:
Smiles Record	Unit Abbrev	molar heat capacity at constant pressure
NCCCCCCN	J/K/mol	301.59
NCCCN	J/K/mol	205.91
NCCCCCCCCCN	J/K/mol	399.64
NCCCCN	J/K/mol	238.49

[1] NCCCCCCCN
[2] NCCN
Q: Just curious, which one has the larger molar heat capacity at constant pressure reading, 1 or 2 ? To answer, give the label that identifies your chosen option.
Result: 1
(1: 334.92 J/K/mol, 2: 174.31 J/K/mol)

----------
Experiment Description: molar heat capacity at constant pressure
Test Conditions: 308.15 K; 101.33 kPa; Liquid; Small sample (50 mg) DSC
Result Type: molar heat capacity at constant pressure (J/K/mol)

Compound	molar heat capacity at constant pressure, J/K/mol
NCCN [ethane-1,2-diamine]	173.41

[A] NCCCN [1,3-propanediamine]
[B] NCCCCCCCN [1,7-diaminoheptane]
Q: # min-compare on molar heat capacity at constant pressure between A and B To answer, give the label that identifies your chosen option.
Result: A

----------
Experiment Description: molar heat capacity at constant pressure
Test Conditions: 314.15 K; 101.33 kPa; Liquid; Small sample (50 mg) DSC
Result Type: molar heat capacity at constant pressure (J/K/mol)

Smiles Record	molar heat capacity at constant pressure, J/K/mol
NCCCCN	238.03
NCCN	173.92
NCCCCCCN	301.08
NCCCCCCCN	334.27

[1] NCCCCCCCCCN
[2] NCCCN
Q: # min-compare on molar heat capacity at constant pressure between 1 and 2 To answer, give the label that identifies your chosen option.
Result: 2

----------
Experiment Description: molar heat capacity at constant pressure
Test Conditions: 306.65 K; 101.33 kPa; Liquid; Small sample (50 mg) DSC
Result Type: molar heat capacity at constant pressure (J/K/mol)

Molecule	molar heat capacity at constant pressure [J/K/mol]
NCCCCCCCN [1,7-diaminoheptane]	333.29
NCCCN [1,3-propanediamine]	204.53
NCCN [ethane-1,2-diamine]	173.29
NCCCCN [1,4-butanediamine]	237.25

----------
Experiment Description: molar heat capacity at constant pressure
Test Conditions: 338.15 K; 101.33 kPa; Liquid; Small sample (50 mg) DSC
Result Type: molar heat capacity at constant pressure (J/K/mol)

Smiles Record	molar heat capacity at constant pressure (J/K/mol)
NCCCCCCCCCN	402.97
NCCCCCCN	304.4
NCCCN	208.2
NCCCCN	240.71

[I] NCCCCCCCN
[II] NCCN
Q: # min-compare on molar heat capacity at constant pressure between I and II To answer, give the label that identifies your chosen option.
Result: II
(II: 176.15 J/K/mol, I: 338.35 J/K/mol)

----------
Experiment Description: molar heat capacity at constant pressure
Test Conditions: 333.65 K; 101.33 kPa; Liquid; Small sample (50 mg) DSC
Result Type: molar heat capacity at constant pressure (J/K/mol)

Worked cases, molar heat capacity at constant pressure given:
Smiles Record	molar heat capacity at constant pressure / J/K/mol
NCCN	175.72
NCCCCCCCCCN	402.02
NCCCCCCN	303.64
NCCCCN	240.15

[P] NCCCN
[Q] NCCCCCCCN
Q: # min-compare on molar heat capacity at constant pressure between P and Q To answer, give the label that identifies your chosen option.
Result: P
